Provenance of the data: ChEMBL document CHEMBL4420075

- Test system: BT-549
- test: Growth inhibition of human BT549 cells assessed as cell growth incubated for 48 hrs by sulforhodamine B assay
- Format: functional
- Set-up: concentration or dose not given beside the values
propertyMeasured: Activity (%)
# number only, unit % dropped from output

In the examples that follow, each entry is paired with its recorded Activity.
[[record]]
molecule = "O=C([O-])CCc1ccc2c(=O)c3sc4c(=O)c5ccccc5c(=O)c4c3c(=O)c2c1.[Na+]"
subjectoftest = "BT-549"
recordednumber = -93.17

[[record]]
molecule = "CC(C)(C)OC(=O)NCC1CN(C(=O)CCc2ccc3c(=O)c4sc5c(=O)c6ccccc6c(=O)c5c4c(=O)c3c2)C1"
subjectoftest = "BT-549"
recordednumber = -94.11

[[record]]
molecule = "CC(C)(O)C(O)CCc1ccc2c(=O)c3sc4c(=O)c5ccccc5c(=O)c4c3c(=O)c2c1 (stereo not given)"
subjectoftest = "BT-549"
recordednumber = -96.67

[[record]]
molecule = "NCC1CN(C(=O)CCc2ccc3c(=O)c4sc5c(=O)c6ccccc6c(=O)c5c4c(=O)c3c2)C1.O=C(O)C(F)(F)F"
subjectoftest = "BT-549"
recordednumber = -96.67


Kindly consider the entry below.
Problem: What does the record list as Activity for O=c1c2ccccc2c(=O)c2c1sc1c(=O)c3ccc(CCCO)cc3c(=O)c12 ?
Solution: -95.56
